- measured-target: T1, Active phosphorylated His6-tagged ERK2 E320K (rat (p-0033 says mouse)), P63086
- T1 chain: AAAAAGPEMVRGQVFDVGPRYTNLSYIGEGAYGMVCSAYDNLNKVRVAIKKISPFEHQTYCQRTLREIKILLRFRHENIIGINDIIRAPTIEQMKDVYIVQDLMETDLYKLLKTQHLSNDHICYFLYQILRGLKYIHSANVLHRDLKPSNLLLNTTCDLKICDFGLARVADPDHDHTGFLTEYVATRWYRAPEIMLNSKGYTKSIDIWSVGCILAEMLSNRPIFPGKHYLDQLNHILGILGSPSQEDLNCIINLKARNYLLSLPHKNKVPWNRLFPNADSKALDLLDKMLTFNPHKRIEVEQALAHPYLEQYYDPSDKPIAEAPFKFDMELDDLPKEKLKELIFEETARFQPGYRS
- experimental-context: modification not given; phosphorylated (active form; sites not given)
Ends that are not written are not given here.
readout-kind: IC50 (µM)
Answers are plain numbers, in µM.

Recorded IC50 of GLQERRGSNVSLTL (not fully specified (some residues, N-terminus)) [PTPN5] , please.
600
